Below, each of the molecules is paired with its reported EC50 value.
- tested_system: caspase-like activity of purified rabbit muscle 20S proteasome (Oryctolagus cuniculus)
- Sequence (A0A5F9DQW2 1-212): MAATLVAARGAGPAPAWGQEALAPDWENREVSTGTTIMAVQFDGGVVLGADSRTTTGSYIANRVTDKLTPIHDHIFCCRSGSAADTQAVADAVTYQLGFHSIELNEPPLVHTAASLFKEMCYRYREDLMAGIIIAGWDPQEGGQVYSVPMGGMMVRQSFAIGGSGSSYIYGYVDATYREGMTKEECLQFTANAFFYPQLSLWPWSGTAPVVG
- assay_overview: In vitro inhibition of 20S proteasome caspase-like activity (Z-LLE-AMC)
- condition_set: EC50 values, caspase-like activity, summary of Table 6

molecule: C[C@@]12OC(=O)[C@]1([C@@H](O)C1CCCCC1)NC(=O)[C@@H]2CCBr [Formula II-4]
EC50: 213 to 850 nM
--
molecule: C[C@@]12OC(=O)[C@]1(C(O)[C@@H]1C=CCCC1)NC(=O)[C@@H]2CCI (single isomer, unassigned) [Formula II-19]
EC50: 213 to 850 nM
--
molecule: C[C@@]12OC(=O)[C@]1([C@@H](O)[C@H]1CCCC3OC31)NC(=O)[C@@H]2CCCl (single isomer, unassigned) [Formula II-5A]
EC50: 213 to 850 nM
--
molecule: C[C@@]12OC(=O)[C@]1([C@@H](O)[C@@H]1C=CCCC1)NC(=O)[C@@H]2CCBr [Formula II-18]
EC50: 213 to 850 nM
--
molecule: C[C@@]12OC(=O)[C@]1([C@@H](O)[C@@H]1C=CCCC1)NC(=O)[C@@H]2CCN=[N+]=[N-] [Formula II-29]
EC50: 213 to 850 nM

====

Below, each of the compounds is paired with its reported EC50 value.
- System: LeTx-mediated cytotoxicity of RAW 264.7 cells
- condition_set: read-out: EC50 for inhibition of RAW 264.7 cell cytotoxicity mediated by anthrax lethal toxin; 45 minute preincubation, 1 μg/ml LF and PA, six hours; maximum concentration 330 nM
measured_quantity: EC50 (nM)

compound: C[C@@]12OC(=O)[C@]1([C@@H](O)[C@H]1CCCC3OC31)NC(=O)[C@@H]2CCCl (single isomer, unassigned) [Formula II-5A]
tested_system: LeTx-mediated cytotoxicity of RAW 264.7 cells
measured_quantity: EC50
reported_measurement: 3
--
compound: C[C@@]12OC(=O)[C@]1([C@@H](O)[C@H]1CCCC3OC31)NC(=O)[C@@H]2CCCl (single isomer, unassigned) [Formula II-5B]
tested_system: LeTx-mediated cytotoxicity of RAW 264.7 cells
measured_quantity: EC50
reported_measurement: 45

====

- Tested on: RPMI 8226
- assay_overview: Cell growth inhibition (resazurin), RPMI 8226
- condition_set: read-out: Cytotoxicity RPMI EC50; Table 12
pEC50: −log10 of the molar value.
measured_quantity: pEC50

molecule: C[C@@]12OC(=O)[C@]1(C(O)[C@@H]1C=CCCC1)NC(=O)[C@@H]2CCI (single isomer, unassigned)
reported_measurement: 8.15

====

- Tested on: RPMI 8226
- assay_overview: cells
- condition_set: read-out: 1% FBS, EC50; RPMI 8226; media containing 1% FBS; single experiments
measured_quantity: EC50

mol_smiles: C[C@@]12OC(=O)[C@]1([C@@H](O)[C@@H]1C=CCCC1)NC(=O)[C@@H]2CCBr
reported_measurement: 13 nM

====

- tested_system: caspase-like activity of purified rabbit muscle 20S proteasome (Oryctolagus cuniculus)
- assay_overview: In vitro inhibition of 20S proteasome caspase-like activity (Z-LLE-AMC)
- condition_set: Proteasome Caspase-like EC50, Table 12
pEC50: −log10 of the molar value.

molecule: C[C@H]1C(=O)N[C@@]2(C(O)[C@@H]3C=CCCC3)C(=O)O[C@@]12C (single isomer, unassigned) [Formula II-20]
tested_system: caspase-like activity of purified rabbit muscle 20S proteasome (Oryctolagus cuniculus)
pEC50: 5.85

====

- System: NF-κB
- assay_overview: NF-κB-mediated luciferase reporter gene assay, HEK293 NF-κB/Luc cells, TNF-α stimulation
- Type: cell-based, human
- condition_set: Homo sapiens, HEK293, Table 5, values printed in μM; 1 hr pretreatment, TNF-α 6 hr; read-out: EC50, NF-κB-mediated luciferase reporter gene assay
Below, each of the compounds is paired with its reported EC50 value.

compound: C[C@@]12OC(=O)[C@]1([C@@H](O)[C@@H]1C=CCCC1)NC(=O)[C@H]2CCCl
result_operator: =
EC50 [µM]: 4.3

compound: CC[C@@H]1C(=O)N[C@@]2([C@@H](O)[C@@H]3C=CCCC3)C(=O)O[C@@]12C
result_operator: >
EC50 [µM]: 20

compound: C[C@@]12OC(=O)[C@]1(C(O)[C@@H]1C=CCCC1)NC(=O)[C@@H]2CCCl (single isomer, unassigned)
result_operator: >
EC50 [µM]: 20

compound: C[C@@]12OC(=O)[C@]1([C@@H](O)[C@@H]1C=CCCC1)NC(=O)[C@@H]2CCO
result_operator: =
EC50 [µM]: 3.2

====

- Tested on: U266
- assay_overview: Cell growth inhibition (resazurin), U266
- condition_set: Homo sapiens, U-266, 48 h, read-out: EC50 against U266, Table 1; 48 hours drug exposure
pEC50: −log10 of the molar value.

compound: C[C@@]12OC(=O)[C@]1(C(O)[C@@H]1C=CCCC1)NC(=O)[C@@H]2CCI (single isomer, unassigned)
pEC50: 8.49

====

- Test system: RPMI 8226
- assay_overview: Cell growth inhibition (resazurin), RPMI 8226
- condition_set: Homo sapiens, RPMI-8226, read-out: Cytotoxicity RPMI EC50, Table 12
Below, each of the compounds is paired with its reported EC50 value.
measured_quantity: EC50 (nM)

compound: C[C@@]12OC(=O)[C@]1(C(O)[C@@H]1C=CCCC1)NC(=O)[C@@H]2CCI (single isomer, unassigned)
result_units: nM
result_operator: =
reported_measurement: 6
--
compound: C[C@@]12OC(=O)[C@]1([C@@H](O)[C@@H]1C=CCCC1)NC(=O)[C@@H]2CCO
result_units: nM
result_operator: >
reported_measurement: 20000
--
compound: C[C@H]1C(=O)N[C@@]2(C(O)[C@@H]3C=CCCC3)C(=O)O[C@@]12C (single isomer, unassigned)
result_units: nM
result_operator: =
reported_measurement: 8510
--
compound: C[C@@]12OC(=O)[C@]1([C@@H](O)[C@@H]1C=CCCC1)NC(=O)[C@@H]2CCBr
result_units: nM
result_operator: =
reported_measurement: 6.3

====

- tested_system: chymotrypsin-like activity of purified rabbit muscle 20S proteasome (Oryctolagus cuniculus, UniProt G1T4Q9)
- Sequence (G1T4Q9 1-263): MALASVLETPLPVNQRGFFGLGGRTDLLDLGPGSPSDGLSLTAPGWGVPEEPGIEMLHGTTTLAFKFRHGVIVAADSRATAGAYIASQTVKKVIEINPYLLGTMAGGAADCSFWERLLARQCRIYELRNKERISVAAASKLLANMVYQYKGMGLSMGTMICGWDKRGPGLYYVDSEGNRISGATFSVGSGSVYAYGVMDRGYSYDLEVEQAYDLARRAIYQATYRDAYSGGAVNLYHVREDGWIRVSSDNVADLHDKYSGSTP
- assay_overview: In vitro inhibition of 20S proteasome chymotrypsin-like activity (suc-LLVY-AMC)
- condition_set: EC50 values, chymotrypsin-like activity, summary of Table 6
pEC50: −log10 of the molar value.
Below, each of the compounds is paired with its reported pEC50 value.
measured_quantity: pEC50

compound: C[C@@]12OC(=O)[C@]1([C@@H](O)[C@@H]1C=CCCC1)NC(=O)[C@@H]2CCN=C=S [Formula II-38]
reported_measurement: 7.96 to 8.70
--
compound: C[C@@]12OC(=O)[C@]1([C@@H](O)[C@@H]1C=CCCC1)NC(=O)[C@@H]2CCBr [Formula II-18]
reported_measurement: 7.96 to 8.70
--
compound: CC[C@H]1C(=O)N[C@@]2([C@@H](O)C3CCCCC3)C(=O)O[C@@]12C [Formula II-3]
reported_measurement: 6.02 to 6.68
--
compound: CC12OC(=O)C1(CC1C=CCCC1)NC(=O)C2CCCl (stereo not shown) [Formula I-7]
reported_measurement: 7.06 to 7.89
--
compound: C[C@@]12OC(=O)[C@]1([C@@H](O)[C@@H]1C=CCCC1)NC(=O)[C@@H]2CCO [Formula II-21]
reported_measurement: 7.96 to 8.70
--
compound: CCC[C@H]1C(=O)N[C@@]2([C@@H](O)[C@@H]3C=CCCC3)C(=O)O[C@@]12C [Formula II-30]
reported_measurement: 7.06 to 7.89
--
compound: COC(=O)CCSC(=O)[C@]1([C@@H](O)[C@@H]2C=CCCC2)NC(=O)[C@H](CCCl)[C@]1(C)O [Formula II-44]
reported_measurement: 7.96 to 8.70

====

- Tested on: PC-3
- assay_overview: Cell growth inhibition (resazurin), PC-3
- Assay type: cell-based, human
- condition_set: from EC50 values
measured_quantity: cytotoxicity against PC-3, in words

compound: C[C@@]12OC(=O)[C@]1([C@@H](O)[C@@H]1C=CCCC1)NC(=O)[C@@H]2CCBr
reported_measurement: cytotoxic

compound: C[C@@]12OC(=O)[C@]1([C@@H](O)C1CCCCC1)NC(=O)[C@@H]2CCCl
reported_measurement: cytotoxic

compound: C[C@@]12OC(=O)[C@]1([C@@H](O)[C@H]1CCCC3OC31)NC(=O)[C@@H]2CCCl (single isomer, unassigned) [Formula II-5A]
reported_measurement: cytotoxic

compound: C[C@@]12OC(=O)[C@]1([C@@H](O)[C@H]1CCCC3OC31)NC(=O)[C@@H]2CCCl (single isomer, unassigned) [Formula II-5B]
reported_measurement: cytotoxic

compound: C[C@@]12OC(=O)[C@]1(C(O)[C@@H]1C=CCCC1)NC(=O)[C@@H]2CCI (single isomer, unassigned)
reported_measurement: cytotoxic

compound: C[C@@]12OC(=O)[C@]1([C@@H](O)C1CCCCC1)NC(=O)[C@@H]2CCBr
reported_measurement: cytotoxic
